Molecular target: HLA-A11 (A*1101) (Homo sapiens, UniProt P04439, A114D/D185E/E176A/F33Y/L180Q/S129P/T187R)
Test: biochemical
Assay type: binding
No end group written: not given here.

[
  {
    "Input Sequence": "DLPSQIEHWK [Peptide 88.0212]",
    "IC50": "> 20000 nM"
  },
  {
    "Input Sequence": "VTVKIGGELK [Peptide 1516.03]",
    "IC50": "39 nM"
  },
  {
    "Input Sequence": "LTNILNVLK [Peptide 1587.02]",
    "IC50": "4.6 nM"
  },
  {
    "Input Sequence": "RILSTYLGR [Peptide 9017.0072]",
    "IC50": "7.2 nM"
  },
  {
    "Input Sequence": "KSCFAMSLIK [Peptide 88.0190]",
    "IC50": "17 nM"
  },
  {
    "Input Sequence": "ESKKKVESK [Peptide 9017.0082]",
    "IC50": "> 20000 nM"
  },
  {
    "Input Sequence": "KVSEFRWYRY [Peptide 78.0053]",
    "IC50": "24 nM"
  },
  {
    "Input Sequence": "LVYRDDFPY [Peptide 1581.04]",
    "IC50": "58 nM"
  },
  {
    "Input Sequence": "GSLQYLALK [Peptide 9017.0096]",
    "IC50": "6.6 nM"
  },
  {
    "Input Sequence": "YGFRLGFLK [Peptide 1556.27]",
    "IC50": "1 nM"
  },
  {
    "Input Sequence": "VFCGPANTGK [Peptide 88.0150]",
    "IC50": "1660 nM"
  },
  {
    "Input Sequence": "SQTCALYWFR [Peptide 88.0165]",
    "IC50": "1830 nM"
  },
  {
    "Input Sequence": "STAAALYWYK [Peptide 1587.06]",
    "IC50": "1.6 nM"
  },
  {
    "Input Sequence": "VLMWKFDSR [Peptide 9017.0066]",
    "IC50": "883 nM"
  },
  {
    "Input Sequence": "RLIERIRER [Peptide 9017.0124]",
    "IC50": "407 nM"
  },
  {
    "Input Sequence": "LLLIRFKCSK [Peptide 88.0191]",
    "IC50": "3520 nM"
  },
  {
    "Input Sequence": "ALTALIKPKK [Peptide 9017.0229]",
    "IC50": "430 nM"
  },
  {
    "Input Sequence": "LQMALETLSK [Peptide 88.0214]",
    "IC50": "22 nM"
  },
  {
    "Input Sequence": "ALKGLAQSK [Peptide 88.0416]",
    "IC50": "1660 nM"
  },
  {
    "Input Sequence": "ETQRQQFLK [Peptide 1589.32]",
    "IC50": "28 nM"
  },
  {
    "Input Sequence": "TVWNPPTTAK [Peptide 1556.03]",
    "IC50": "26 nM"
  },
  {
    "Input Sequence": "YQNFQNADK [Peptide 99.0371]",
    "IC50": "177 nM"
  },
  {
    "Input Sequence": "TVSAELPR [Peptide 1556.22]",
    "IC50": "1880 nM"
  },
  {
    "Input Sequence": "TLDVYMIMVK [Peptide 9012.0258]",
    "IC50": "17 nM"
  },
  {
    "Input Sequence": "RLLKETELRK [Peptide 9012.0248]",
    "IC50": "52 nM"
  }
]

Data provenance: patent US9340577B2
